Assay: Compound was evaluated for the apparent Km value.
Assay type: ADME
Experimental endpoint: Km (µM)

a = Nc1ncnc2c1ncn2[C@@H]1O[C@H](CO)[C@@H](O)[C@H]1O
b = Nc1nc2c(F)ncnc2n1C1O[C@H](CO)[C@@H](O)[C@H]1O (some centres not stated)
Incoming: Rank a against b by their Km values and give the higher one. Respond using the label that marks the chosen record.
Outgoing: b
(b: 1000 µM, a: 29 µM)
